# System: NCI-H460 lung
# Procedure Summary: NCI-60 one-dose screen, 48 h (100 = growth as untreated, 0 = no growth, -100 = all killed)
# Condition Notes: 10 µM unless noted
# Method: Growth inhibition of the NCI-H460 human Non-Small Cell Lung tumor cell line is measured as a screen for anti-cancer activity. Cells are grown in 96 well plates and exposed to the test compound for 48 hours. Compounds are tested at a single concentration, which is 10^-5 M for most compounds. The reported endpoint is percent growth (GI% or GIPRCNT), where numbers from 0 - 100% represent growth inhibition, and numbers from -100% - 0 represent cell death. […]
The panel holds about 83,000 compounds, 20% with a hit somewhere; the sample as a whole holds those more often. Active and inactive are the calls of the source. Rule for the calls: active = growth percent below 10; inactive = the rest.
Outcome Measure: growth

- COC(=O)c1ccc2c(c1)nc(-c1cc3ccccc3[nH]c1=O)n2-c1cc(C(C)(C)C)[nH]n1: 45.4% (inactive)
- O=C(NCCN1CCCC1)n1cc(-c2ccncc2)c(-c2cc(O)cc(Cl)c2)n1: 99.2% (inactive)
- COc1ccc(/C=C/c2nc(NCCCN(C)C)c3ccccc3n2)cc1: 33.2% (inactive)
- C=C(COC(C)=O)[C@H]1CC/C(C)=C/CC/C(C)=C/CC[C@@]2(C)O[C@H]2C1: 106% (inactive)
- O=C1/C(=C/c2ccccc2)SC(=Nc2ccccc2)N1Nc1ccccc1: -25.2% (active)
- Cc1cccc(/C=N/n2c(-c3ccc(Cl)cc3)nc3c(Br)cc(Br)cc3c2=O)c1: 29.1% (inactive)
- Cn1c(=O)c2c(nc(N/N=C/c3ccccc3Cl)n2C)n(C)c1=O: 120% (inactive)
- Nc1ncnc2c1N=C(c1ccc3c(c1)OCO3)CC(c1ccc(Cl)cc1)N2 (stereo not given): 83.3% (inactive)
- COc1ccc(-c2nc3c(c(-c4ccc(Cl)cc4)nn3-c3ccccc3)c(-c3ccc(O)cc3)c2C#N)cc1: 14.1% (inactive)
- CCN1C(=O)N(CC)C2C1N=C(SC)N2/N=C/C=C/c1ccccc1OC (stereo not given): 6.18% (active)

====

# System: CCRF-CEM leukemia
# Procedure Summary: NCI-60 one-dose screen, 48 h
# Condition Notes: 10 µM unless noted
Compounds without any hit were thinned out: in the full panel of roughly 83,000, 20% have a hit. The source made the active and inactive calls. How the source made its calls: active means growth percent below 10; inactive means the rest.
Possible outcomes: active, inactive

- Cc1ccc(NC(=O)c2sc3nc4c(cc3c2N)C(=O)CCC4)cc1Cl: inactive
- O=C1CCCN1C(O)CCN(Cc1ccccc1)Cc1ccc(Cl)cc1 (stereo unspecified): inactive
- Cc1ccccc1C1CC(=O)c2ccccc2C1C (stereo unspecified): inactive
- N/C(=N\OC(=O)c1ccccc1)C(Cc1ccccc1)C(=O)NOC(=O)c1ccccc1 (stereo unspecified): active
- Clc1ccc(-c2cnc3nonc3n2)s1: inactive
- CCN(CC)CCCC(C)Nc1c(-c2ccccc2)cnc2cc(Cl)ccc12 (stereo unspecified): inactive
- CC1(C)CN(CCNc2nccc(-c3c(-c4cccc(O)c4)nc4sccn34)n2)S(=O)(=O)N1: inactive
- C=C1C(=O)O[C@H]2[C@H]1CC/C(COC(=O)NCc1cccc(OC)c1)=C\CC[C@@]1(C)O[C@@H]21: active
- C/C(=N\Nc1ccc([N+](=O)[O-])cn1)c1ccc(N)cc1: inactive
- COc1cc(Nc2ncccc2/C=C/C(=O)c2cc(OC)c(OC)c(OC)c2)cc(OC)c1OC: inactive
- OC(COCc1ccccc1)COCc1ccccc1: inactive

====

# System: UACC-257 melanoma
# Procedure Summary: NCI-60 one-dose screen, 48 h
# Condition Notes: 10 µM unless noted
This is part of a sample that, as a whole, favours compounds with a hit. Of some 83,000 tested, about 20% had one in any assay. Active and inactive are the calls of the source. Rule for the calls: active = growth percent below 10; inactive = the rest.
Possible outcomes: true = active, false = inactive

• CNCCCn1c2c(c3ccc(Cl)cc3c1=O)C(=O)c1cc(OC)cnc1-2 = false
• COc1ccccc1/C=C/C(=O)CCC(=O)O = false
• C=C1C[C@@]2(C)C(CC[C@]3(C)C2CC=C2C4CC(C)(C)C[C@@H](OC(=O)/C(C)=C\C)[C@]4(C(=O)O)CC[C@]23C)C(C)(C)C1=O (some centres undefined) = false
• COc1cc(Nc2ncccc2/C=C/C(=O)c2cc(OC)c(OC)c(OC)c2)cc(OC)c1OC = false
• CCOC(=O)C1C(=O)C=C(c2cc(OC)c(OC)c(OC)c2)CC1c1sc(N(C)Cc2ccccc2)nc1Cl (centres undefined) = false
• COc1ccc(-c2cnc(-c3ccncc3-c3cccc(OC)c3)o2)cc1 = false
• COc1cc(C2CC(c3ccccc3)=NN2C=O)ccc1Oc1ccnc2cc(Cl)ccc12 (centres undefined) = false
• CC1(C)CC(=O)c2cc3c(N)c(C(=O)Nc4ccc(Cl)cc4)sc3nc2C1 = false
• CCOC(=O)CCN(CCC(=O)OCC)c1ccccc1 = false
• CCOC(=O)N1C2CCC(C2)N1C(=O)OCC = false
• CCc1c(C)c2ccc(O)c(-c3cc(-c4ccccc4)c(C#N)c(=O)[nH]3)c2oc1=O = false
• CCOC(=O)c1ccc2c(c1)[n+](=O)c(C(=O)c1ccc3ccccc3c1)c(C(F)(F)F)n2[O-] = true
• Cn1cnc([N+](=O)[O-])c1S(=O)(=O)Oc1cccc2ccccc12 = false
• O=C1/C(=C/c2ccccc2)SC(=Nc2ccccc2)N1Nc1ccccc1 = false
• CCC(=O)OCc1ccc(OC)cc1 = false
• CC(=O)c1ccc(Br)c([N+](=O)[O-])c1 = false
• Clc1ccc(-c2cnc3c(-c4ccnc(N5CCNCC5)c4)cnn3c2)cc1 = true
• CCN1C(=O)C(C)C=C(C)C=C1C (centres undefined) = false
• COc1ccc(-n2c(COc3ccc(F)cc3)n[nH]c2=S)cc1 = false
• CC1=CC(=O)OC1C/C=C(\C)CCC1[C@@]2(C)CCC[C@@](C)(C(=O)O)C2CC[C@@]1(C)O (some centres undefined) = false
• COc1ccc(C(=O)OC2C(OC3C(O)COC(O[C@H]4C[C@H]5[C@@H]6CC=C7C[C@@H](O)CC[C@]7(C)[C@H]6CC[C@]5(C)[C@H]4[C@H](C)C(=O)CCC(C)C)C3OC(C)=O)OCC(O)C2O)cc1 (some centres undefined) = true
• CC(C)N(C(=S)SSC(=S)N(C(C)C)C(C)C)C(C)C = false
• CC(C)=CC[C@@H]1CC2(CC=C(C)C)C(=O)C(OC3(C(=O)c4ccccc4)C(=O)C4(CC=C(C)C)C[C@@H](CC=C(C)C)C(C)(C)C(CC=C(C)C)(C4=O)C3=O)(C(=O)c3ccccc3)C(=O)C(CC=C(C)C)(C2=O)C1(C)C (some centres undefined) = true
• Clc1cc(Cl)cc(-c2cnc3nonc3n2)c1 = false
• COc1ccc(-c2nc3c(c(-c4ccc(Cl)cc4)nn3-c3ccccc3)c(-c3ccc(O)cc3)c2C#N)cc1 = false
• Nc1nc(N)c2cc(NCc3ccc(Cl)c(Cl)c3)ccc2n1 = true
• CC(C)(C)[Si](C)(C)OC1[C@@H](O[Si](C)(C)C(C)(C)C)[C@@H](CNC(=O)NC(=O)NC(=O)CCl)O[C@H]1n1cnc2c(NC(=O)Nc3ccccc3)ncnc21 (some centres undefined) = false
• Oc1c(C(Nc2ccccc2Br)c2ccccc2)ccc2cccnc12 (centres undefined) = false
• CC(C)(C)c1ccc(OC(=O)Nc2ccccc2)cc1 = false
• COc1cc(C2CC(c3ccc(Cl)cc3)=NN2C(C)=O)ccc1Oc1nc2c(c(=O)n(C)c(=O)n2C)n1C (centres undefined) = true
• O=[N+]([O-])c1ccc(N/N=C\c2ccc(O)cc2O)nc1 = false
• COc1cccc(/C=N\Nc2ccc([N+](=O)[O-])cn2)c1O = false
• O=C1CCCN1C(O)CCN(Cc1ccccc1)Cc1ccc(Cl)cc1 (centres undefined) = false
• O=c1c2cc(Br)cc(Br)c2nc(-c2ccc(Cl)cc2)n1/N=C\c1ccccc1F = false
• CN1C(=O)N(C)C2C1NN=c1s/c(=C\c3ccsc3)c(=O)n12 (centres undefined) = false
• CCNCCCn1c2c(c3ccc(Cl)cc3c1=O)C(=O)c1cc(OC)cnc1-2 = false
• Cc1ccccc1C1CC(=O)c2ccccc2C1C (centres undefined) = false
• COc1ccc(C2c3cccn3-c3ccccc3N2C(C)=O)cc1 (centres undefined) = false
• CCn1c(Cc2ccccc2Nc2c(Cl)cccc2Cl)nnc1SCC(=O)Nc1ccccc1C(F)(F)F = false

====

# Tested on: SNB-75 CNS
# Procedure Summary: NCI-60 one-dose screen, 48 h (100 = growth as untreated, 0 = no growth, -100 = all killed)
# Condition Notes: 10 µM unless noted
The panel holds about 83,000 compounds, 20% with a hit somewhere; the sample as a whole holds those more often. The source made the active and inactive calls. Rule for the calls: active = growth percent below 10; inactive = the rest.
# growth annotations
Outcome Measure: growth

- C=CCOc1ccc2c(C)cc(=O)oc2c1: 111% (inactive)
- C[N+](C)(C)CCCCCCCCCC[N+](C)(C)C: 89.3% (inactive)
- COc1ccccc1/C=N\Nc1ccc([N+](=O)[O-])cn1: 110% (inactive)
- CN1C(=O)N(C)C2C1NN=c1s/c(=C\c3ccc(C(F)(F)F)cc3)c(=O)n12 (stereo not drawn): 7.43% (active)
- FC(F)(F)c1nn[nH]n1: 102% (inactive)
- O=C(/C=C/c1cn(-c2ccccc2)nc1-c1ccccc1)OCc1cn(-c2cccc([N+](=O)[O-])c2)nn1: 74.3% (inactive)
- CCCCCCCCCCCCCC1=NC(C)(C)CN1C(C)C: -41.1% (active)
- COc1ccc(-c2cnc(-c3ccncc3-c3cccc(OC)c3)o2)cc1: 41.2% (inactive)
- Cn1cnc([N+](=O)[O-])c1S(=O)(=O)Oc1ccccc1: 103% (inactive)
- Clc1cc(Cl)cc(-c2cnc3nonc3n2)c1: 99% (inactive)
- O=[N+]([O-])c1ccc(Sc2nc(Cl)nc(NC3CCCC3)n2)cc1: -100% [100 µM] (active)
- N/C(=N\O)c1ncc(-c2ccc(C(F)(F)F)cc2)c(NC2CCCCCC2)n1: -41.4% [100 µM] (active)
- CCC(=O)NC1=C(Cl)C(=O)C(NC(=O)CC)=C(Cl)C1=O: 107% (inactive)
- CC(=O)NC1C(O[C@H]2C[C@H]3[C@@H]4CC=C5C[C@@H](O)CC[C@]5(C)[C@H]4CC[C@]3(C)[C@H]2[C@H](C)C(=O)CCC(C)C)OCC(O)C1O (stereo partly drawn): 37.8% (inactive)
- C=CCOC(=O)C1=C(C)NC2=C(C(=O)CCC2)C1c1ccc(F)cc1 (stereo not drawn): 80.3% (inactive)
- O=C(/C=C/c1ccc(F)cc1)N1CCN(C(=O)/C=C/c2ccc(C(F)(F)F)cc2)CC1: 119% (inactive)
- Nc1cc(C(=O)O)cc(C(=O)O)c1: 99.2% (inactive)
- COc1cc(Cl)cc(-c2nn(C(=O)NCCN3CCOCC3)cc2-c2ccncc2)c1: 28.9% (inactive)
- CCCCc1nc(Cl)c(C2CC(c3ccc(S(N)(=O)=O)cc3)=NN2c2cc(Cl)cc(Cl)c2)[nH]1 (stereo not drawn): 62.2% (inactive)
- CC[C@H](C)[C@H](N)C(=O)O: 99.1% (inactive)
- ClC1(Cl)C2CCCCCCC21 (stereo not drawn): 97.2% (inactive)
- Nc1c(N)c2ccccc2c2ccccc12: 84.8% (inactive)
- CCCCOC(=O)c1cc(O)c(O)c(O)c1: 55.6% (inactive)
